System: LXFL 529
Procedure Details: NCI tumour cell line growth inhibition, 48 h
Active and inactive are the calls of the source. Cut-off read from the data, not from the text of the source: active = GI50 up to about 1.1 µM and inactive = higher. Non-standard residues stand in square brackets, D forms with d. Residues, ends and D or L forms follow the SMILES beside them. *: point of attachment. NMeF = CN[CH](Cc1ccccc1)C(=O)O; NMeV = CN[CH](C(=O)O)C(C)C; Boc = CC(C)(C)OC(=O)*
Could you please report measured GI50 for the items listed next?

{"Compound": "Clc1ccc(CN2COc3c(cc(Cl)c4cccnc34)C2)cc1", "GI50": "1.36 µM (inactive)"}
{"Compound": "O=C(CC(=O)N1N=C(n2ccc3ccccc32)CC1c1ccccc1)Nc1ccccc1Cl (configuration not stated)", "GI50": "> 100 µM (inactive)"}
{"Compound": "COc1ccc(/N=C\\c2ccc(N(CCC#N)CCC#N)cc2)cc1", "GI50": "7.11 µM (inactive)"}
{"Compound": "CCc1cccc(CC)c1NC(=O)/C(Cl)=C(/Cl)C(=O)O", "GI50": "13.6 µM (inactive)"}
{"Compound": "CC(C)C(NC(=O)OC(C)(C)C)C(=O)N(C)C(Cc1ccccc1)C(=O)N(C)C(C(=O)O)C(C)C (stereo not drawn) (Boc-Val-[NMeF]-[NMeV]-OH; configuration not given here)", "GI50": "> 100 µM (inactive)"}
{"Compound": "O=C1C(Cl)C(c2ccc([N+](=O)[O-])cc2)N1n1cnc2ccccc2c1=O (configuration not stated)", "GI50": "22.7 µM (inactive)"}
{"Compound": "O=c1c2cccc3cccc(c4n1CCN=4)c32", "GI50": "> 100 µM (inactive)"}
{"Compound": "CCOC(=O)c1c(-c2[nH]c(C(=O)OCc3ccccc3)c(C)c2C(=O)OCC)[nH]c(C(=O)OCc2ccccc2)c1C", "GI50": "> 100 µM (inactive)"}
{"Compound": "Cc1ccccc1-n1c(N)c(-c2nc3ccccc3[nH]2)sc1=S", "GI50": "22.1 µM (inactive)"}
{"Compound": "COc1c(C(C)C)cc2c3c1OC(=O)[C@@]31CCCC(C)(C)C1CC2 (some centres not stated)", "GI50": "16.6 µM (inactive)"}

// for each compound below, give its GI50
1. O=C(NCCCCNc1cccccc1=O)OCc1ccccc1
2. Nc1nc2c(nnn2C2C=C(CO)C(O)C2O)c(=O)[nH]1 (configuration not stated)

> 100 µM (inactive)
> 100 µM (inactive)

====

Test system: OVCAR-4
Procedure Details: NCI tumour cell line growth inhibition, 48 h
Activity calls are given as the source filed them. Cut-off read from the data, not from the text of the source: active = GI50 up to about 1.1 µM and inactive = higher.
Returns: one label drawn from active, inactive

{"Molecule": "CCOC(=O)NC(C(=O)OCC)(N1CCN(c2cc3c(cc2F)c(=O)c(C(=O)O)cn3CC)CC1)C(F)(F)F (stereo not given)", "Cat": "inactive"}

# outcome recorded in this test, key = [O-]c1c2cc(-[n+]3c(-c4ccccc4)cc(-c4ccccc4)cc3-c3ccccc3)cc1CO[C@@H](c1ccccc1)[C@H](c1ccccc1)OCCOCCO[C@@H](c1ccccc1)[C@H](c1ccccc1)OC2
active

# outcome recorded in this test, key = O=S(=O)(/N=C(\NO)Nc1ccc(Cl)cc1)c1ccc(-c2ccccn2)s1
inactive

# outcome recorded in this test, key = C=CNC(=S)n1nc(-c2ccccc2NC(=O)C(F)(F)F)c(=O)n(C(=S)NC=C)c1=S
inactive

# outcome recorded in this test, key = Nc1ccc(S2(c3ccc(N)cc3)C=C(c3ccccc3)C(c3ccccc3)=C2)cc1
inactive

# outcome recorded in this test, key = CC(C)c1cc2c(cc1S(=O)(=O)O)[C@@]1(C)CCC[C@@](C)(C(=O)O)C1CC2 (stereo not given in full)
inactive

# outcome recorded in this test, key = CC(=O)OCC1OC(c2nc3ccccc3s2)=CC(OC(C)=O)C1OC(C)=O (stereo not given)
inactive

====

Test system: LXFL 529
Procedure Details: NCI tumour cell line growth inhibition, 48 h
Calls of active or inactive are those of the source. No stated cut-off is given here; in the data, active = GI50 up to about 1.1 µM and inactive = higher.
Returns: one label drawn from true (active), false (inactive)

Below, 5 molecules whose answers are already recorded.
{"Molecule": "CC(C)C1CC[C@@H](C)C[C@@]1(O)CC(N)=O (stereo partly specified)", "Cat": "false"}
{"Molecule": "COc1ccc(OC)c(/C(C)=N/NC(N)=S)c1", "Cat": "false"}
{"Molecule": "CC1C2C=C(O)C(=O)C(C2=O)C1c1ccccc1 (stereo unspecified)", "Cat": "false"}
{"Molecule": "COC(=O)c1ccc(Cc2ccc(C(=O)OC)o2)o1", "Cat": "false"}
{"Molecule": "CN(C)CCNC(=O)c1cccc2cc([N+](=O)[O-])ccc12", "Cat": "true"}

# outcome recorded in this test, key = COc1cccc2c1C(=O)c1c(O)c3c(c(O)c1C2=O)C[C@@](O)(C(=O)CO)C[C@@H]3OC1CC(N2CCOCC2C#N)C(O)C(C)O1 (stereo partly specified)
true

# outcome recorded in this test, key = CC(C)(C)C(=C[S+]([O-])/N=C/c1ccccc1)C(C)(C)C (stereo unspecified)
false

# outcome recorded in this test, key = C[C@]12CCC3[C@@H](CCC45OC4C(=O)CC[C@]35C)C1Cc1cnn(-c3ccc(F)cc3)c1N2 (stereo partly specified)
false

====

Tested on: SF-295
Procedure Details: NCI tumour cell line growth inhibition, 48 h
Active and inactive are the calls of the source. Cut-off read from the data, not from the text of the source: active = GI50 up to about 1.1 µM and inactive = higher.
Returns: one label drawn from active, inactive

{"Compound": "CC(=O)Nc1ccc(C2CC(c3ccc([N+](=O)[O-])cc3)=Nc3ccccc3[S+]2[O-])cc1 (centres undefined)", "Cat": "inactive"}
{"Compound": "O=C(CC(=O)N1N=C(n2ccc3ccccc32)CC1c1ccccc1)Nc1ccccc1Cl (centres undefined)", "Cat": "inactive"}
{"Compound": "C=CCN1C[C@H](C)N([C@@H](c2ccc(C(=O)N3CCCCC3)cc2)c2cccc(OC)c2)C[C@H]1C", "Cat": "inactive"}
{"Compound": "COc1cc(COC(=O)N[C@H](C(=O)O)C(C)(C)C)c([N+](=O)[O-])cc1OC", "Cat": "inactive"}
{"Compound": "CC(=O)C1(O)CC2(c3ccccc3)C(=O)C1(c1ccccc1)C(c1ccccc1)=C2c1ccccc1 (centres undefined)", "Cat": "inactive"}

# outcome recorded in this test, key = O=S(=O)(O)c1cc(Cl)c(O)c2ncc(Cl)cc12
inactive

# outcome recorded in this test, key = CCCN(CCC)CCc1cc(C(C)=O)n(S(=O)(=O)c2ccc(C)cc2)c1
inactive

# outcome recorded in this test, key = COc1cc(C2c3[nH]c4ccccc4c3[C@@H](Nc3ccc(C#N)cc3)[C@H]3COC(=O)N23)cc(OC)c1O (some centres undefined)
active

# outcome recorded in this test, key = Cc1ncc2c(=O)c3c(oc2n1)c1ccccc1n3Cc1ccccc1
inactive

====

Tested on: OVCAR-4
Procedure Details: NCI tumour cell line growth inhibition, 48 h
Activity calls are given as the source filed them. Cut-off read from the data, not from the text of the source: active = GI50 up to about 1.1 µM and inactive = higher.
Could you please report measured GI50 for the items listed next?

{"Compound": "Cc1c2cc[n+](C)cc2c(COC2OC(CO)C(O)C2O)c2c3ccccc3n(C)c12 (stereo not drawn)", "Result": "> 100 µM (inactive)"}
{"Compound": "Cc1c(-c2cc3n(n2)C(c2cccs2)C(C#N)=C(c2ccccc2)N3)c(=O)n(-c2ccccc2)n1C (stereo not drawn)", "Result": "> 87.9 µM (inactive)"}
{"Compound": "O=[N+]([O-])c1ccc(C2=NOC(c3ccccc3)N2C23CC4CC(CC(C4)C2)C3)cc1 (stereo not drawn)", "Result": "39.1 µM (inactive)"}

// for each compound below, give its GI50
1. C/C(=N\c1c2ccccc2nc2ccccc12)N(C)C
2. Nc1nc2c(nnn2C2C=C(CO)C(O)C2O)c(=O)[nH]1 (stereo not drawn)
3. Cc1ccc(-c2cc(N)n(-c3nc4c([nH]3)c(=O)n(C)c(=O)n4C)n2)cc1
4. Cc1cc(C)n(CN(Cn2nc(C)cc2C)c2ccccc2)n1
5. CCC1(C)NN=c2s/c(=C/c3ccc(OC)cc3)c(=O)n2N1 (stereo not drawn)
6. CC(=O)Nc1ccc(C2CC(c3ccc([N+](=O)[O-])cc3)=Nc3ccccc3[S+]2[O-])cc1 (stereo not drawn)
7. N=NCC(=O)OC(COCc1ccccc1)COCc1ccccc1

["19 µM (inactive)", "> 100 µM (inactive)", "4.01 µM (inactive)", "20.3 µM (inactive)", "35.7 µM (inactive)", "18.9 µM (inactive)", "69.7 µM (inactive)"]

====

System: UACC-62
Procedure Details: NCI tumour cell line growth inhibition, 48 h
Calls of active or inactive are those of the source. No stated cut-off is given here; in the data, active = GI50 up to about 1.1 µM and inactive = higher.
Returns: one label drawn from True = active, False = inactive

Below, 3 compounds whose answers are already recorded.
{"Compound": "Clc1ccc(CN2COc3c(cc(Cl)c4cccnc34)C2)cc1", "Cat": "False"}
{"Compound": "O=C1CCC(C(=O)O)C2=C1CCCC2 (stereo unspecified)", "Cat": "False"}
{"Compound": "COc1c(OC)c(OC)c2c(=O)cc(-c3ccc(OC(C)C)cc3)oc2c1OC", "Cat": "False"}

# outcome recorded in this test, key = Nc1nc(Cl)nc2c1ncn2C1CCC(COP(=O)(O)OP(=O)(O)OP(=O)(O)O)O1 (stereo unspecified)
False

# outcome recorded in this test, key = NC(CC(=O)Nc1cc(C(F)(F)F)ccc1Cl)=NO
False

# outcome recorded in this test, key = C/C(=N/NC(=S)N(C)CCc1ccccn1)c1cnccn1
True

# outcome recorded in this test, key = CC(=O)/C(=C/N1C(=O)CC(=O)NC1=S)C(=O)Nc1ccccc1C
False

# outcome recorded in this test, key = Cl/C(=C\C=N\c1ccc(I)cc1)c1ccc2ccccc2c1
False

# outcome recorded in this test, key = O=C(COc1ccc(OCC(=O)N2C(=O)CC/C2=N\c2ccc(Cl)cc2)cc1)N1C(=O)CS/C1=N\c1ccc(Cl)cc1
False

# outcome recorded in this test, key = Nc1nc2c(nnn2C2C=C(CO)C(O)C2O)c(=O)[nH]1 (stereo unspecified)
False

# outcome recorded in this test, key = O=[N+]([O-])C(=C1NCCN1)C(Cl)=C(Cl)Cl
False
